assay_details: GST conjugation activity with ethacrynic acid (HPLC)
Assay type: biochemical
condition_details: 0.4 mM electrophilic substrate, 4 mM glutathione, 0.1 M MOPS pH 7.0, corrected for uncatalyzed reaction
property_name: Activity of soybean GST enzyme, Ethacrynic Acid (nmol/min/mg)
Record the value in nmol/min/mg, omitting the unit from your answer.

Solved entries (count: 2):
ssm.pk0026.g11: soybean type II GST encoded by cDNA insert in clone ssm.pk0026.g11 (protein) MASASVGKELTLYSYWRSSCSHRVRIALNLKGLKYEYKPVNLLKGEQSRPEFLQLNPVGCVPVLVDDHVVLYDSFAIIMYLEDKYPHNPLLPHDIYKRAINFQAASVVSSTIQPLHNLSLLNYIGEKVGPDEKLPWAQSIIRRGFKALEKLLKDHTGRYATGDEVFLADIFLAPQLHAAFKRFNIHMNEFPILARLHETYNEIPAFQEALPENQPDAVH = 5
GST-A: soybean type III GST encoded by cDNA insert in clone GSTa (protein) MSDEVVLLDFWPSPFGMRVRIALAEKGIKYEYKEEDLRNKSPLLLQMNPVHKKIPVLIHNGKPICESLIAVQYIEEVWNDRNPLLPSDPYQRAQTRFWADYVDKKIYDLGRKIWTSKGEEKEAAKKEFIEALKLLEEQLGDKTYFGGDNLGFVDIALVPFYTWFKAYETFGTLNIEECPKFIAWAKRCLQKESVAKSLPDQQKVYEFIMDLRKKLGIE = 109

Next molecule, please.
Which value of Activity of soybean GST enzyme, Ethacrynic Acid has been reported for ssl.pk0020.b10: soybean type III GST encoded by cDNA insert in clone ss1.pk0020.b10 (protein) MAEQDKVILHGMWASPYAKRVELALNFKGIPYEYVEEDLRNKSDLLLKYNPVHKKVPVLVHNGKAIAESMVILEYIDETWKDGPKLLPSDSYKRAQARFWCHFIQDQLMESTFLVVKTDGEAQQKAIDHVYEKLKVLEDGMKTYLGEGNAIISGVENNFGILDIVFCALYGAYKAHEEVIGLKFIVPEKFPVLFSWLMAIAEVEAVKIATPPHEKTVGILQLFRLSALKSSSATE in the records? 14
